# Assay summary: Plasma pharmacokinetics (sparse sampling)
# Format: in vivo, human
# Reported conditions: human, plasma, po, 30 mg, study 1; PH-797804 30 mg oral; 23 h post dose
Result type: concentration at 23 h (ng/mL)
The reply should be a number in ng/mL, with the unit left off.

Retrieve concentration at 23 h measured for CNC(=O)c1ccc(C)c(-n2c(C)cc(OCc3ccc(F)cc3F)c(Br)c2=O)c1 [PH-797804] and print it.
38.9

---

# Assay summary: Plasma pharmacokinetics (sparse sampling)
# Type: in vivo, human
# Reported conditions: human, plasma, po, 30 mg, study 2; PH-797804 30 mg oral; 30.5 h post dose
Result type: concentration at 30.5 h
Provide a numeric answer, followed by its unit.

Please look at this compound and report its concentration at 30.5 h: CNC(=O)c1ccc(C)c(-n2c(C)cc(OCc3ccc(F)cc3F)c(Br)c2=O)c1
49.2 ng/mL
